assay: P. aeruginosa biofilm formation inhibitors, primary screen, PAO1 strain, BacTiter-Glo luminescence, LB-PBS (AID 1144); conditions: 12 h, higher = more signal
Recorded z-score determines the label; the label ranges are band 1: < -0.7; band 2: ≥ -0.7 and < -0.2; band 3: ≥ -0.2

| compound | cat |
| --- | --- |
| Cc1ccc(S[C@]2(C(=O)NC(C)C)CC(=O)N(Cc3ccccc3C(F)(F)F)[C@@H]2c2ccc(CO)cc2I)cc1 | band 1 |
| Cc1ccc(S[C@]2(C(=O)NC3CC3)CC(=O)N(Cc3ccccc3Cl)[C@@H]2c2ccc(CO)cc2I)cc1 | band 2 |
| COCCCNC(=O)[C@@]1(Sc2ccc(C)cc2)CC(=O)N(C2Cc3ccccc3C2)[C@@H]1c1ccc(CO)cc1I | band 3 |
| COc1cc(OC)c(C(O)C2C=CC3C(=O)N(c4ccccc4)C(=O)C3N2Nc2ccc(C#N)cc2)cc1Br (stereo not given) | band 2 |
| COc1ccc([Si](C)(C)[C@H]2[C@H](CC(=O)N3Cc4ccccc4C[C@H]3CO)O[C@@]3(C(=O)N(Cc4cccc(N5CCCCC5=O)c4)c4ccccc43)[C@@H]2C)cc1 | band 3 |
| O=C1c2ccccc2[C@](Cc2ccccc2I)(C(=O)NCc2ccccc2)[C@H](c2ccc(CO)cc2)N1C1CCCCC1 | band 2 |
| O=C1NC(=O)C2C1C=CC(C(O)c1c(F)cccc1Cl)N2Nc1ccccn1 (stereo not given) | band 3 |
| Cc1ccc(S[C@]2(C(=O)NCC(F)(F)F)CC(=O)N(Cc3ccccc3)[C@@H]2c2ccc(CO)cc2)cc1 | band 2 |
| O=C1O[C@@H](c2ccccc2)[C@@H](c2ccccc2)N2[C@@H](c3ccc(O)cc3)[C@]3(C(=O)Nc4ccc(C#CC5=CCCCC5)cc43)[C@@H](C(=O)N3CCN(c4ncccn4)CC3)[C@H]12 | band 1 |
| C=C(CCCC)/C(=C/C[C@@H](OC(=O)c1ccncc1)c1cccc(OCCO)c1)c1cnc2ccccc2c1 | band 1 |
| C[C@@H]1ON(c2ccc(C(=O)OC(C)(C)C)cc2)[C@H](c2ccc(Br)cc2)[C@H]1C(=O)N1C(=O)OC[C@H]1Cc1ccccc1 | band 3 |
| CCOC(=O)C[C@H]1[C@H](OC(=O)c2ccccc2-c2ccccc2)[C@@H](NC(=O)c2ccc3ccccc3n2)c2cc(OCCCO)ccc2N1C(=O)c1ccc2ccccc2n1 | band 1 |
| CN1C(=O)C2C(C1=O)C1C=C(c3ccc(CO)cc3)C2C(c2cccs2)N1Cc1cccc(OC(F)(F)F)c1 (stereo not given) | band 2 |

----------
assay: Plasmodium falciparum growth inhibition, primary screen, strain 3D7, DAPI fluorescence, 100 nL (AID 1184);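 also: parasites grown inside human red blood cells in medium with human serum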; conditions: P. falciparum 3D7 growth, 3 d, higher = more signal
Recorded z-score determines the label; the label ranges are low = under -2, medium = from -2 up to -0.09, high = -0.09 and over

| molecule | cat |
| --- | --- |
| CCOC(=O)C1=CC[C@@H](c2ccccc2C(F)(F)F)N(S(=O)(=O)c2ccc(C)cc2)C1 | medium |
| O=C(O)[C@]1(Cc2ccccc2)N=C(c2ccc(OCCCO)cc2)O[C@@H]1c1ccccc1 | high |
| CC=CC(O)C1C=CC2C(=O)N(c3ccccc3)C(=O)C2N1Nc1ccc([N+](=O)[O-])cc1 (stereo not given) | high |
| O=c1cccc(-c2cccc(Cl)c2)o1 | high |
| C=CCC(OC(C)=O)[C@@H]1[C@@H](N(Cc2cc3ccccc3o2)C(=O)c2ccc(C)cc2)c2cc(OCCCO)ccc2N1C(=O)Cc1ccc2ccccc2c1 (stereo not given in full) | medium |
| O=C(CS)NCCCCCCNC(=O)[C@@H]1C[C@@H]2C(=O)N3CCC[C@H]3C(=O)N2[C@@H]1c1cccc(OCCO)c1 | high |
| CCOC(=O)[C@@H]1[C@@H]2C(=O)N(CC)C(=O)[C@@H]2C[C@@H]1Sc1ccccc1 | medium |
| COCCOC(=O)N1C(=O)[C@@]2(c3ccccc31)[C@H](C(=O)N1CCN(c3ncccn3)CC1)[C@H]1C(=O)O[C@H](c3ccccc3)[C@H](c3ccccc3)N1[C@@H]2c1ccc(OCCO)cc1 | medium |
| O=C1c2ccccc2[C@](Cc2ccccc2I)(C(=O)NCCN2CCOCC2)[C@H](c2ccc(CO)cc2)N1Cc1ccccc1 | medium |
| COCCCNC(=O)[C@@H]1c2ccccc2C(=O)N(Cc2ccccc2C(F)(F)F)[C@H]1c1ccc(CO)cc1 | high |
| CC(C)(C)OC(=O)CC[C@]1(C(=O)N2CCOCC2)N=C(c2ccc(OCCCO)cc2)O[C@H]1c1ccccc1 | medium |
| [N-]=[N+]=Nc1ccccc1[C@@H]1OC(c2ccc(OCCCO)cc2)=N[C@]1(CCS(=O)(=O)c1ccccc1)C(=O)NCCN1CCOCC1 | low |
| COCCOC(=O)N1C(=O)[C@@]2(c3cc(C#CC4(O)CCCCCC4)ccc31)[C@H](c1ccccc1OCCO)N1[C@H](c3ccccc3)[C@H](c3ccccc3)OC(=O)[C@H]1[C@@H]2C(N)=O | low |
| C=CCNC(=O)[C@H]1[C@@H]2C(=O)O[C@@H](c3ccccc3)[C@@H](c3ccccc3)N2[C@@H](c2ccccc2OCCO)[C@]12C(=O)N(C(=O)OCCOC)c1ccc(C#CC3=CCCCC3)cc12 | low |
| CC(C)C(=C=CC[C@@H](O)c1ccccc1OCCO)C[C@@H](O)COCc1ccccc1 | medium |
| C=C(COC)/C(=C/C[C@@H](OC(=O)c1ccncc1)c1cccc(OCCO)c1)c1cnc2ccccc2c1 | low |
| [N-]=[N+]=Nc1ccccc1[C@H]1OC(c2ccc(OCCCO)cc2)=N[C@@]1(CCS(=O)(=O)c1ccccc1)C(=O)N1CCCCC1 | low |
| CO[C@H]1O[C@H](CO)[C@@H](OC(=O)c2ccc(Br)cc2)[C@@H]2OC(=O)[C@@H](Cc3ccc4ccccc4c3)C/C=C/C[C@H](Cc3ccc4ccccc4c3)C(=O)O[C@@H]12 | medium |
| CC(C)(C)OC(=O)CC[C@@]1(C(=O)O)N=C(c2ccc(OCCCO)cc2)O[C@@H]1c1ccccc1 | high |
| NC(=O)N1C(=O)C2C(C1=O)C1C=C(c3ccc(CO)cc3)C2C(C2CC2)N1Cc1sc2ccccc2c1Cl (stereo not given) | low |
| COc1ccc(C#Cc2ccc3c(c2)[C@]2(C(=O)N3)[C@H](C(=O)N3CCc4cc(OC)c(OC)cc4C3)[C@H]3C(=O)O[C@H](c4ccccc4)[C@H](c4ccccc4)N3[C@@H]2c2ccc(O)cc2)cc1 | medium |
| CN(C)CCCNC(=O)[C@@H]1c2ccccc2C(=O)N(CC23CC4CC(CC(C4)C2)C3)[C@H]1c1ccc(CO)cc1 | low |
| CCOc1cc(C(O)C2C=CC3C(=O)N(C)C(=O)C3N2N2CCCCC2)ccc1O (stereo not given) | medium |
| CC(=O)N1Cc2ccccc2C[C@]2(N=C(c3ccc(OCCCO)cc3)O[C@@H]2c2ccccc2)C1=O | medium |
| CCOC(=O)C[C@H]1[C@H](OC(=O)c2ccc(C(=O)c3ccccc3)cc2)[C@@H](NC(=O)c2ccc3ccccc3c2)c2cc(OCCCO)ccc2N1C(=O)c1ccccc1 | high |
| CO[C@H]1O[C@H](CO)[C@@H](OC(=O)Nc2ccc(Oc3ccccc3)cc2)[C@H](OC(=O)Nc2ccccc2-c2ccccc2)[C@@H]1OC(=O)Nc1ccccc1-c1ccccc1 | low |
| O=C1OC[C@@H](c2ccccc2)N2CC(/C=C/c3ccccc3)=CC12 (stereo not given in full) | high |
| COC(=O)[C@@]1(Cc2ccc(F)cc2)[C@H]2c3cc(C(=O)N4CCCC4)n(CCF)c3C[C@H]2CN1C(=O)c1ccccc1 | medium |
| CC(C)CNC(=O)[C@@H]1c2ccccc2C(=O)N(Cc2cc(F)cc(C(F)(F)F)c2)[C@H]1c1ccc(CO)cc1 | high |

----------
assay: binders of probe aFSTL3 on microarray, primary screen, stem cell growth factor project, biochemical, small-molecule microarray, fluorescence 635/667 (AID 1064); settings: higher = more signal;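 also: measures binding of the biotinylated anti-FSTL3 antibody to printed compounds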
readout: composite z-score

| compound | recorded_result |
| --- | --- |
| C=C(CCCC)/C(=C/C[C@@H](OC(C)=O)c1ccc(CO)o1)c1cc(C(=O)OC)ccc1OC | -0.557 |
| CCCNC(=O)[C@@]1(c2ccc([N+](=O)[O-])cc2)CC(=O)N(C2CCCCC2)[C@@H]1c1ccc(CO)cc1I | 0.368 |
| CC(C)C(CO)N1C(=O)[C@]2(C)C3C(=O)OCCC/C=C\[C@H]3OC23C=CCN(c2ccc(Cl)cc2)C(=O)[C@@H]13 (stereo partly specified) | 0.0972 |
| O=C1O[C@@H](c2ccccc2)[C@@H](c2ccccc2)N2[C@@H](c3ccccc3OCCO)[C@]3(C(=O)Nc4ccc(C#CCCO)cc43)[C@@H](C(=O)Nc3nc4ccccc4s3)[C@H]12 | -0.0348 |
| C=C(C(=O)CC[C@H](OC(=O)c1cccnc1)c1cccc(OCCO)c1)C(C)C | 0.483 |
| C=CC1c2cc(O)c(OC)cc2CCN1Cc1sc2ccccc2c1Cl (stereo unspecified) | 1.12 |
| COc1ccc(NN2C(C(O)c3ccccn3)C=CC3C(=O)N(C4CCCCC4)C(=O)C32)cc1 (stereo unspecified) | -0.218 |
| COC1(C)CN(Cc2ccccc2Br)[C@H](/C=C/c2ccccc2)[C@H](Cc2ccccc2)O1 (stereo partly specified) | -0.366 |
| C[C@H]1ON(c2ccc(C(=O)OC(C)(C)C)cc2)[C@@H](c2ccc(O)cc2)[C@@H]1C(=O)N1C(=O)OC[C@@H]1c1ccccc1 | -0.565 |
| C[C@H]1C2=C3C(CC[C@H]4C(OCc5ccc(F)cc5C(F)(F)F)OC[C@](C)([C@@H]34)N(C(=O)OC(C)(C)C)C2)C(CO)C1CO (stereo partly specified) | 0.0721 |
| CCCC=C(CCC)[C@@H](NP(=O)(c1ccccc1)c1ccccc1)c1ccc(C(F)(F)F)cc1 | -0.176 |
| NCCCCCCNC(=O)[C@H]1C[C@H]2C(=O)N[C@@H](Cc3ccccc3)C(=O)N2[C@H]1c1ccc(O)cc1 | 0.465 |
| CCOC(=O)C1=CC[C@@H](c2ccccc2C(F)(F)F)N(S(=O)(=O)c2ccc(C)cc2)C1 | 0.811 |
| COc1ccc(C(O)C2C=CC3C(=O)N(Cc4ccccc4)C(=O)C3N2n2cnnc2)c2ccccc12 (stereo unspecified) | 0.487 |
| C=C(/C=C/CNS(=O)(=O)c1ccc(C)cc1)[C@H](O)[C@H]1CCCN1S(=O)(=O)c1ccccc1[N+](=O)[O-] | -0.402 |
| CCOc1cc(C(O)C2C=CC3C(=O)N(C)C(=O)C3N2N2CCCCC2)ccc1O (stereo unspecified) | -0.152 |
